# Tested on: Trichomonas vaginalis
# ASSAY_PROTOCOL: […] activity against Trichomonas vaginalis G3 after 24 hrs by hemocytometry
# Format: functional
# RUN_PARAMETERS: G3, 24 h
MEASURED_QUANTITY: IC50 (µM)

| COMPOUND | ASSAY_TARGET | QUANTITY_UNIT | IC50 |
| --- | --- | --- | --- |
| O=C1C(=O)N(Cc2cn([C@@H]3C(=O)N(c4ccccc4)[C@@H]3/C=C/c3ccccc3)nn2)c2ccc(Cl)cc21 (relative stereo) | Trichomonas vaginalis | µM | 9.82 |

[a] Cc1ccc(N2C(=O)[C@@H](n3cc(CN4C(=O)C(=O)c5cc(Cl)ccc54)nn3)[C@H]2/C=C/c2ccccc2)cc1 (relative stereo)
[b] O=C1C(=O)N(Cc2cn([C@@H]3C(=O)N(c4ccccc4)[C@@H]3/C=C/c3ccccc3)nn2)c2ccc(F)cc21 (relative stereo)
[c] Cc1ccc(N2C(=O)[C@@H](n3cc(CN4C(=O)C(=O)c5ccccc54)nn3)[C@H]2/C=C/c2ccccc2)cc1
Ask: Rank the 3 compounds: largest IC50 first, smallest last. # format: label list in the order the request specifies
Reply: c, a, b
